system: CDK4-cyclinD3; settings: concentration: 1 μM, replicates: in singlicate; n = 1;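 further: KINOMEscan kinase panel screen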
MEASURED_ENDPOINT: %Inh

[
  {
    "COMPOUND": "NCCCC(NC(=O)c1cc(Br)c(-c2ccnc3[nH]ccc23)s1)c1ccccc1.O=C(O)C(F)(F)F.O=C(O)C(F)(F)F (stereo not shown)",
    "%Inh": "2%"
  }
]

For each of the items listed, what is its %Inh?
1. COc1cccc(-c2ccc3c(NC(=O)C4CC4)n[nH]c3n2)c1
2. Cc1ccc(F)c(C(=O)Nc2cccc(-c3nn4ccccc4c3-c3ccnc(Nc4cccc(F)c4)n3)c2)c1F
3. Cc1cccc(Nc2nc(N[C@H]3CCNC3)ncc2C(N)=O)c1.Cl
4. Cc1ccc(C(=O)Nc2ccc(Nc3ccnc4cc(-c5nccs5)ccc34)cc2O)cc1.Cl
5. Nc1n[nH]c2cnc(-c3ccccc3)cc12
6. COc1cc(Nc2ncc3c(C)nc(-c4cc5ccccc5[nH]4)n3n2)cc(OC)c1OC

output:
1: 15%; 2: 0%; 3: 1%; 4: 0%; 5: 47%; 6: 0%

###

tested on: CDK5; settings: concentration: 1 μM, replicates: in singlicate; n = 1
MEASURED_ENDPOINT: %Inh (%)
Answers are plain numbers, in %.

Reference set, count: 3
[
  {
    "COMPOUND": "CC(=O)N1CCN(c2ccc(Nc3nccc(-c4sc(C(C)C)nc4-c4cccc(NS(=O)(=O)c5cccc(Cl)c5)c4)n3)cn2)CC1",
    "UNIT_TEXT": "%",
    "EXPERIMENTAL_VALUE": 100
  },
  {
    "COMPOUND": "O=C(NC1CCN(c2ccnc(Nc3ccc(F)cc3)n2)C1)c1cc2ccccc2s1 (stereo not shown)",
    "UNIT_TEXT": "%",
    "EXPERIMENTAL_VALUE": 7
  },
  {
    "COMPOUND": "Cl.Cl.NCC(NC(=O)c1cc(-c2ccccc2)c(-c2ccnc3[nH]ccc23)s1)c1ccccc1 (stereo not shown)",
    "UNIT_TEXT": "%",
    "EXPERIMENTAL_VALUE": 0
  }
]

input: Can you share its %Inh? I mean this compound: COc1cccc(NC(=O)NC2CCN(c3ccnc(Nc4cc(OC)c(OC)c(OC)c4)n3)C2)c1 (stereo not shown)
output: 0

###

test system: VRK2; details: concentration: 1 μM, replicates: in singlicate; n = 1
For each entry below, report its %Inh value.
Just so you know, I need the unit written after the number.

Reference set, count: 5
[
  {
    "MOLECULE": "Cc1cccc(NC(=O)Nc2ccc(Oc3ncnc4ccn(C)c34)cc2)c1",
    "TARGET_DESC": "VRK2",
    "%Inh": "0%"
  },
  {
    "MOLECULE": "Cc1cccc(Nc2nc(N[C@H]3CCNC3)ncc2C(N)=O)c1.Cl",
    "TARGET_DESC": "VRK2",
    "%Inh": "22%"
  },
  {
    "MOLECULE": "FC(F)(F)c1ccc(/C=C/c2cncnc2Nc2ccc3[nH]c(Cc4ccccc4)nc3c2)cc1",
    "TARGET_DESC": "VRK2",
    "%Inh": "3%"
  },
  {
    "MOLECULE": "Cl.c1ccc(-c2ccc3c(Nc4ccc5[nH]ncc5c4)ccnc3c2)nc1",
    "TARGET_DESC": "VRK2",
    "%Inh": "0%"
  },
  {
    "MOLECULE": "COc1cc(Nc2nccc(-c3c(-c4cccc(NC(=O)c5c(F)cccc5F)c4)nn4ccccc34)n2)cc(OC)c1OC",
    "TARGET_DESC": "VRK2",
    "%Inh": "0%"
  }
]

For each of the items listed, what is its %Inh?
1. Cl.Cl.NCC(NC(=O)c1cc(-c2ccccc2)c(-c2ccnc3[nH]ccc23)s1)c1ccccc1 (stereo not drawn)
2. Nc1ncc(-c2cccnc2)c2scc(-c3ccc4c(c3)CCN4C(=O)Cc3ccccc3)c12
3. Cn1cc(-c2[nH]c3cc(NC(=O)[C@H](N)C4CCCCC4)cc4c3c2C=NNC4=O)cn1
4. CCCCc1nn2ncccc2c1-c1ccnc(Nc2ccc(N3CCN(C)CC3)cc2)n1
5. CC(=O)N1CCN(c2ccc(Nc3nccc(-c4sc(C(C)C)nc4-c4cccc(NS(=O)(=O)c5cccc(Cl)c5)c4)n3)cn2)CC1
6. COC(=O)Nc1nc2ccc(Oc3ccc(NC(=O)Nc4cc(C(F)(F)F)ccc4F)cc3)cc2n1C.Cl

output:
["0%", "0%", "0%", "50%", "0%", "56%"]

For each of the items listed, what is its %Inh?
1. CSc1cccc2c(-c3ccncn3)c(-c3ccc(F)cc3)nn12
2. Cn1cc(-c2ccc3c(c2)CCN3C(=O)Cc2cccc(Cl)c2)c2c(N)ncnc21
3. CNC(=O)c1ccccc1Nc1nc(Nc2ccc(N3CCOCC3)cc2)ncc1Cl.Cl
4. COc1ccc(CNC(=O)NC2CCN(c3ccnc(Nc4ccc(F)cc4)n3)CC2)cc1

output:
23%
0%
21%
14%

###

tested on: ERK8; construct: gene MAPK15; settings: concentration: 1 μM, replicates: in singlicate; n = 1
For each entry below, report its %Inh value.
Give bare numbers, in %.

Reference set, count: 3
[
  {
    "SMILES_INPUT": "COC(=O)Nc1nc2cc(Oc3ccc(NC(=O)Nc4cc(C(F)(F)F)ccc4F)cn3)ccc2[nH]1.Cl.Cl",
    "MEASURED_ENDPOINT": "%Inh",
    "UNIT_TEXT": "%",
    "EXPERIMENTAL_VALUE": 95.3
  },
  {
    "SMILES_INPUT": "O=C(Nc1cccc(-c2nn3ccccc3c2-c2ccnc(Nc3cccc(F)c3)n2)c1)c1c(F)ccc(F)c1Cl",
    "MEASURED_ENDPOINT": "%Inh",
    "UNIT_TEXT": "%",
    "EXPERIMENTAL_VALUE": 20
  },
  {
    "SMILES_INPUT": "COc1cc2c(cc1OCCN1CCNCC1)ncc1c3ccc(C#N)cc3[nH]c21",
    "MEASURED_ENDPOINT": "%Inh",
    "UNIT_TEXT": "%",
    "EXPERIMENTAL_VALUE": 12
  }
]

Lab note: next molecule to report on.
input: Can you share its %Inh? I mean this molecule: CCn1c(-c2nonc2N)nc2c(C#CC(C)(C)O)nc(OC[C@H](N)c3ccccc3)cc21
output: 7

###

tested on: DLK; construct: gene MAP3K12; details: concentration: 1 μM, replicates: in singlicate; n = 1
For each entry below, report its %Inh value.
Numbers only, in %.

[
  {
    "COMPOUND": "C[C@@H](Oc1cc(-n2cnc3cc(-c4ccnc(NCCS(C)(=O)=O)c4)ccc32)sc1C(N)=O)c1ccccc1Cl",
    "TARGET_DESC": "DLK",
    "%Inh [%]": 12
  },
  {
    "COMPOUND": "Fc1ccc(-c2ncn(C3CCNCC3)c2-c2ccnc(Oc3ccc(-c4ccccc4)cc3)n2)cc1",
    "TARGET_DESC": "DLK",
    "%Inh [%]": 7
  },
  {
    "COMPOUND": "COc1cccc(-c2ccc3c(NC(=O)C4CC4)n[nH]c3n2)c1",
    "TARGET_DESC": "DLK",
    "%Inh [%]": 72
  },
  {
    "COMPOUND": "Nc1n[nH]c2cnc(-c3ccccc3)cc12",
    "TARGET_DESC": "DLK",
    "%Inh [%]": 19
  },
  {
    "COMPOUND": "O=C(Nc1n[nH]c2nc(-c3ccc(O)cc3)ccc12)C1CC1",
    "TARGET_DESC": "DLK",
    "%Inh [%]": 0
  }
]

For each of the items listed, what is its %Inh?
1. CN(C)Cc1ccc(-c2ccc3c(Nc4ccc(Oc5ccccn5)cc4)ccnc3c2)o1
2. CCCCc1nn2ncccc2c1-c1ccnc(Nc2ccc(N3CCN(C)CC3)cc2)n1
3. Nc1ncc(-c2cccnc2)c2scc(-c3ccc4c(c3)CCN4C(=O)Cc3ccccc3)c12
4. COc1cccc(C2=C(Nc3ccc(Cl)c(C(=O)O)c3)C(=O)NC2=O)c1

output:
[69, 47, 6, 0]

For each of the items listed, what is its %Inh?
1. Cc1ccc(C(=O)N2CC[C@@H](O)C2)cc1-n1c(C)cc(OCc2ccc(F)cc2F)c(Br)c1=O
2. COc1cc(Nc2ncc3c(C)nc(-c4cc5ccccc5[nH]4)n3n2)cc(OC)c1OC
3. COC(=O)Nc1nc2cc(Oc3ccc(NC(=O)Nc4cc(C(F)(F)F)ccc4F)cn3)ccc2[nH]1.Cl.Cl
4. Cl.Cl.NCC(C(=O)Nc1cc(Br)c(-c2ccnc3[nH]ccc23)s1)c1ccccc1 (stereo not shown)
5. Cn1cc(-c2ccc3c(c2)CCN3C(=O)Cc2cccc(Cl)c2)c2c(N)ncnc21
6. Cc1cccc(Nc2nc(N[C@H]3CCNC3)ncc2C(N)=O)c1.Cl
7. Cl.c1ccc(-c2ccc3c(Nc4ccc5[nH]ncc5c4)ccnc3c2)nc1

output:
0
22
35
4
51
35
1

For each of the items listed, what is its %Inh?
1. O=C(Nc1cccc(-c2nn3ccccc3c2-c2ccnc(Nc3cccc(F)c3)n2)c1)c1c(F)ccc(F)c1Cl
2. CC(C)(C)c1ccc2nccc(Nc3cccc(O)c3)c2c1
3. COc1cc(Nc2nccc(N3CCC(NC(=O)Nc4cccc(C(C)=O)c4)C3)n2)cc(OC)c1OC (stereo not shown)
4. O=c1[nH]cc(-c2ccc(N3CCOCC3)cc2)c2sc(-c3cn[nH]c3)cc12
5. CNC(=O)c1ccccc1Nc1nc(Nc2ccc(N3CCOCC3)cc2)ncc1Cl.Cl
6. Cl.Cl.NCC(NC(=O)c1cc(-c2ccccc2)c(-c2ccnc3[nH]ccc23)s1)c1ccccc1 (stereo not shown)

output:
1: 3; 2: 16; 3: 42; 4: 0; 5: 95; 6: 35
